- Tested on: CCRF-CEM leukemia
- test_description: NCI tumour cell line growth inhibition, 48 h
Recorded TGI by entry

* COC(=O)C(Cc1ccccc1)NC(=O)c1ccc(CNC(=S)NCc2cccc(CNC(=S)NCc3ccccc3)c2)cc1 (centres undefined) | > 62.5 µM
* Cc1cc(Oc2cnc(=O)[nH]c2)cs1 | > 100 µM
* NC(=O)C[C@H](NC(=O)C1(NC(=O)[C@H](Cc2ccc(CP(=O)(O)O)cc2)NC(=O)C(=O)O)CCCCC1)C(=O)NCCCc1cccc2ccccc12 | > 10 µM
* Cc1cc([N+](=O)[O-])ccc1NS(=O)(=O)c1cc(Cl)ccc1Cl | > 72.4 µM
* COc1ccc(S(=O)(=O)Nc2ccc(-c3csc(N4C(=O)/C(=C/c5ccccc5)N=C4c4ccccc4)n3)cc2)cc1Cl | > 100 µM

Query: Please list TGI recorded for the compound C/C(=N\NC(=O)c1cccnc1)c1cccc(/C(C)=N/NC(=O)c2cccnc2)n1.CC(=O)[O-].CC(=O)[O-].[Zn+2]
Reply: 65.6 µM

Query: # return recorded TGI for entry C/C(CC(=O)Nc1ccc(Cl)cc1)=N\NC(=O)C[n+]1ccccc1
Reply: > 100 µM

Query: Look up TGI of COC(=O)c1ccc(NC(=O)c2cc(OC)c(OC)c(OC)c2)cc1 and report it.
Reply: > 100 µM

Query: Please indicate TGI recorded for COc1ccc2c3c(c4ccccc4cc13)C(=O)N(CCN(C)CCN)C2=O
Reply: 0.22 µM

Query: Supply recorded TGI for O=CC(Br)C(Br)c1ccccc1 (centres undefined) here.
Reply: 1.94 µM

Query: Please list TGI recorded for the compound CN(C)C(=S)/N=c1\ss/c(=N\C(=S)N(C)C)n1-c1ccc(Cl)cc1
Reply: > 100 µM

Query: Consider the compound O=C(O)c1ccc([S-])cc1.[Au+].c1ccc(CN2[CH-]N(Cc3ccccc3)C(c3ccccc3)=C2c2ccccc2)cc1 and give its recorded TGI.
Reply: 2.72 µM

Query: Please give the documented TGI of CC(O)c1cc2c(s1)C(=O)c1scc(C(C)O)c1C2=O (centres undefined)
Reply: > 100 µM

Query: For COC(=O)c1c(O)ccc2c1c1c(n2Cc2ccccn2)C(=O)c2ccccc2C1=O , write its TGI.
Reply: > 100 µM

====

Entries and their measured TGI follow.
- Tested on: SNB-75 CNS
- test_description: NCI tumour cell line growth inhibition, 48 h

* COc1cc2c(cc1OC)-c1ccc3cc4c(cc3c1N(CCN(C)C)C2)OCO4 | 6 µM

Query: Input Cc1cccc(Cl)c1NC(=O)c1cnc(Nc2cc(N3CCOCC3)cc(N3CCOCC3)c2)s1 , output reported TGI.
Reply: 0.0176 µM

Query: Return value of TGI for input COC(=O)C(Cc1ccccc1)NC(=O)c1ccc(CNC(=S)NCc2cccc(CNC(=S)NCc3ccccc3)c2)cc1 (stereo unspecified) , no commentary.
Reply: > 62.5 µM

Query: Please supply the value of reported TGI for the item Cc1[nH]c(=O)nc2nc3ccc(Cl)cc3c(NC(C)(CO)CO)c12
Reply: > 96.5 µM

Query: # return recorded TGI for entry COc1ccc(/C=N\NC(=O)Nc2cccc3ccccc23)cc1
Reply: 34.5 µM

Query: Please give measured TGI of the following entry: CC(C)=CCCC1(Sc2ccccc2)C(=O)OCC1C=C(C)C (stereo unspecified)
Reply: > 100 µM

Query: Give TGI for the following compound: COP(=O)(OC)c1ccc(NCc2cc(O)ccc2O)cc1
Reply: > 77.7 µM

Query: Supply reported TGI belonging to this compound: c1cncc(-c2nc3ccccc3s2)c1
Reply: > 100 µM
